- test_system: rhMAO-B (Homo sapiens (Human), UniProt P27338)
- Sequence (P27338 whole entry): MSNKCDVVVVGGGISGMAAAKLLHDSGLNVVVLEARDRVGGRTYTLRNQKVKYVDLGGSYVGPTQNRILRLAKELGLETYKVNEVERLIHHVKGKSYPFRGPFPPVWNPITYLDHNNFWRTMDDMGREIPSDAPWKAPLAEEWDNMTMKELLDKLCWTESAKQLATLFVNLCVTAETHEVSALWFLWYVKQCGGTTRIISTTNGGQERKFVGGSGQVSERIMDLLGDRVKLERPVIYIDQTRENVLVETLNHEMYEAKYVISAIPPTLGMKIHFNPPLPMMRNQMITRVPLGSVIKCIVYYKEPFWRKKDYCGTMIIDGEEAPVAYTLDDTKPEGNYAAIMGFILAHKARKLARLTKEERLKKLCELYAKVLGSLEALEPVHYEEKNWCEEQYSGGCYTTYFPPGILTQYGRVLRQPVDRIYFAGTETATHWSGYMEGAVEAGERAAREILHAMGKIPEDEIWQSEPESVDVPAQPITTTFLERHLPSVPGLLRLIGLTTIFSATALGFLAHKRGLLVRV
- protocol_description: MAO-Glo assay, MAO-B inhibition
- Assay type: biochemical
- experimental_parameters: bound printed in cell
- Procedure: The capability of compounds described herein to inhibit MAO was determined using a modified Promega MAO-Glo™ assay kit. […] The light was measured using a luminescence setting on the plate reader. […] The plate luminescence was read. […] The capability of compounds described herein to inhibit MAO was determined using a modified Promega MAO-Glo™ assay. […] The plate luminescence was read. […]
pIC50: −log10 of the molar value.
endpoint: pIC50

compound="NC/C(=C/F)COc1ccc2nc(NCc3ccc(N4CCCC4=O)cc3)oc2c1 [Example 57, 4-methylbenzenesulfonate]" result="< 4.40"
compound="CNC(=O)CN(Cc1ccccc1)c1nc2ccc(OC/C(=C/F)CN)cc2o1 [Example 53, 4-methylbenzenesulfonate]" result="< 4.30"
compound="CNC(=O)[C@@H](Cc1ccccc1)Nc1nc2ccc(OC/C(=C\\F)CN)cc2o1 [Example 80, 4-methylbenzenesulfonate]" result="< 4.40"

Query: I have this compound here, NC/C(=C/F)COc1ccc2nc(N3CCC(O)CC3)oc2c1 [Example 77] , and I need its recorded pIC50.
Reply: < 4.30

Query: Endpoint output: pIC50 of CNC(=O)CN(C)c1nc2ccc(OC/C(=C\F)CN)cc2o1 [Example 72, 4-methylbenzenesulfonate] . Value?
Reply: < 4.30

Query: # get_value(readout='pIC50', item= CCCCc1nc2cc(OC/C(=C/F)CN)ccc2n1C [Example 11] )
Reply: < 4.30

====

- test_system: rhMAO-B (Homo sapiens (Human))
- protocol_description: MAO-Glo assay, MAO-B inhibition
- Format: biochemical
- experimental_parameters: class symbols, ranges defined in μM
endpoint: IC50

Query: Tell me the measured IC50 of CCCNc1nc2ccc(OC/C(=C/F)CN)c(F)c2o1 , please.
Reply: 0.1 to 1 µM

Query: Give its IC50 value. Item: NC/C(=C/F)COc1ccc2nc(NC3CCC(O)CC3)oc2c1 (centres unmarked)
Reply: 1 to 10 µM

====

- test_system: rhMAO-A (Homo sapiens (Human), UniProt P21397)
- Sequence (P21397 whole entry): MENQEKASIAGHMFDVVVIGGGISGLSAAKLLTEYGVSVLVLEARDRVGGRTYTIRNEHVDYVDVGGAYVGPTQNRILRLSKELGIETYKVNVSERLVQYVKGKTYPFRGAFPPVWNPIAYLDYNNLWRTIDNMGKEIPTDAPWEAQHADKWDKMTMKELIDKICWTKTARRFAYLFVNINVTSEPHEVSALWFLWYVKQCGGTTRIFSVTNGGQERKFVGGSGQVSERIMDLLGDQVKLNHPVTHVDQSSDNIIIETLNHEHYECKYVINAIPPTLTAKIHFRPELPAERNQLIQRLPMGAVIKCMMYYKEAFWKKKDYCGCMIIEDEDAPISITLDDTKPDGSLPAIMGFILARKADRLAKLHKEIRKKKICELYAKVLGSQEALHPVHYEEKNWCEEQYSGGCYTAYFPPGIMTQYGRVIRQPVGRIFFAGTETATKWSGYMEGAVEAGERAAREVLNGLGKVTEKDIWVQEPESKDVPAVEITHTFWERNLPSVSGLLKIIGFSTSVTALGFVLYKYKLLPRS
- protocol_description: MAO-Glo assay, MAO-A inhibition
- Assay type: biochemical
- experimental_parameters: class symbols, ranges defined in μM
Structures can show the parent of a compound that is named as a salt.
endpoint: IC50

Look over these answered cases.
compound="NC/C(=C/F)COc1ccc2nc(N3CCOCC3)oc2c1 [Example 64, 4-methylbenzenesulfonate]" result="1 to 10 µM"
compound="NC/C(=C\\F)COc1ccc2nc(C3CCCC3)oc2c1 [Example 37, 4-methylbenzenesulfonate]" result="1 to 10 µM"
compound="CCCCc1nc2ccc(OCC(CN)=C(F)F)cc2o1 [Example 32, hydrochloride]" result="10 to 30 µM"
compound="NC/C(=C\\F)COc1ccc2nc(NCc3ccncc3)oc2c1 [Example 23, 4-methylbenzenesulfonate]" result="10 to 30 µM"

Query: # get_value(readout= IC50, system= rhMAO-A (Homo sapiens (Human), UniProt P21397)) for NC/C(=C/F)COc1ccc2nc(NCCC(Cl)CCO)oc2c1 (centres unmarked)
Reply: 1 to 10 µM

Query: Param readout = IC50; param system = rhMAO-A (Homo sapiens (Human), UniProt P21397); param query = NC/C(=C\F)COc1ccc2nc(NCc3ccccc3)oc2c1 [Example 21, 4-methylbenzenesulfonate] ; response: value
Reply: 10 to 30 µM

Query: Param readout = IC50; param system = rhMAO-A (Homo sapiens (Human), UniProt P21397); param query = NC/C(=C\F)COc1ccc2nc(N3CC4(COC4)C3)oc2c1 [Example 67, 4-methylbenzenesulfonate] ; response: value
Reply: 1 to 10 µM

Query: IC50 of CCCCc1nc2ccc(OC/C(=C/F)CN)c(F)c2o1 on rhMAO-A (Homo sapiens (Human), UniProt P21397)?
Reply: 10 to 30 µM

====

- test_system: rhMAO-A (Homo sapiens (Human))
- protocol_description: MAO-Glo assay, MAO-A inhibition
- Assay type: biochemical
- experimental_parameters: class symbols, ranges defined in μM
endpoint: IC50

Consider the worked cases shown below.
compound="CCCN(C)c1nc2ccc(OC/C(=C/F)CN)cc2o1 [Example 46, 4-methylbenzenesulfonate]" endpoint=IC50 result="1 to 10 µM"
compound="NC/C(=C/F)COc1ccc2nc(NCc3ccc(C(F)(F)F)nc3)oc2c1 [Example 83, 4-methylbenzenesulfonate]" endpoint=IC50 result="10 to 30 µM"
compound="NC/C(=C\\F)COc1ccc2nc(NCCc3ccccc3)oc2c1 [Example 45, 4-methylbenzenesulfonate]" endpoint=IC50 result="10 to 30 µM"

Query: Any idea what IC50 came out for CCCCc1nc2cc(OC/C(=C/F)CN)ccc2o1 [Example 8, 4-methylbenzenesulfonate] on rhMAO-A (Homo sapiens (Human))?
Reply: 1 to 10 µM

Query: What IC50 appears in the records for this compound with rhMAO-A (Homo sapiens (Human))? CC1CN(c2nc3ccc(OC/C(=C/F)CN)cc3o2)C1 [Example 33, 4-methylbenzenesulfonate]
Reply: 10 to 30 µM

Query: Which IC50 is reported with rhMAO-A (Homo sapiens (Human)) for this entry: NC/C(=C\F)COc1ccc2nc(C34CC5CC(CC(C5)C3)C4)oc2c1 ?
Reply: 1 to 10 µM

Query: # get_value(readout= IC50, system= rhMAO-A (Homo sapiens (Human))) for CCCCc1nc2ccc(NC/C(=C\F)CN)cc2o1 [Example 44, 4-methylbenzenesulfonate]
Reply: 10 to 30 µM

Query: Checklist item: IC50 tested on rhMAO-A (Homo sapiens (Human)), entry NC/C(=C\F)COc1ccc2nc(N3CCC(O)C3)oc2c1 (centres unmarked) , value?
Reply: 1 to 10 µM

Query: # query: IC50 | item CCCCc1nc2ccc(SC/C(=C/F)CN)cc2o1 [Example 22, 4-methylbenzenesulfonate] | system: rhMAO-A (Homo sapiens (Human))
Reply: 10 to 30 µM

Query: Can you look up IC50 on rhMAO-A (Homo sapiens (Human)) for CCCCc1nc2ccc(N(C)C/C(=C/F)CN)cc2o1 ?
Reply: 10 to 30 µM

Query: Entry CCCCc1nc2ccc(OC/C(=C/F)CN)cc2s1 , system rhMAO-A (Homo sapiens (Human)): what IC50 was measured?
Reply: 1 to 10 µM

Query: Under rhMAO-A (Homo sapiens (Human)): IC50 value of CCCCc1nc2ccc(OC/C(=C/F)CN)c(C)c2o1 ?
Reply: 1 to 10 µM

Query: Notebook entry, rhMAO-A (Homo sapiens (Human)) assay: IC50 of NC/C(=C/F)COc1ccc2nc(NCc3ccnc(C(F)(F)F)c3)oc2c1 [Example 62, 4-methylbenzenesulfonate] = ?
Reply: 10 to 30 µM

Query: Kindly state the measured IC50 obtained for CCCNc1nc2ccc(OC/C(=C\F)CN)c(F)c2s1 [Example 14, 4-methylbenzenesulfonate] with rhMAO-A (Homo sapiens (Human)).
Reply: 1 to 10 µM

Query: Form field - read-out: IC50; system: rhMAO-A (Homo sapiens (Human)); submitted item: COc1ccc(CNc2nc3ccc(OC/C(=C/F)CN)cc3o2)cc1 [Example 24, 4-methylbenzenesulfonate]
Reply: 10 to 30 µM

Query: Form entry - test system: rhMAO-A (Homo sapiens (Human)); read-out: IC50; compound: CCCCc1nc2ccc(OCCC(=CF)CN)cc2o1 [Example 38, 4-methylbenzenesulfonate]
Reply: 0.1 to 1 µM

Query: Request - read-out IC50 | tested on rhMAO-A (Homo sapiens (Human)) | compound CC(C)(C)CCCc1nc2ccc(OC/C(=C/F)CN)cc2o1 [Example 51, 4-methylbenzenesulfonate]
Reply: 1 to 10 µM

====

- test_system: rhMAO-A (Homo sapiens (Human), UniProt P21397)
- protocol_description: MAO-Glo assay, MAO-A inhibition
- Assay type: biochemical
- experimental_parameters: class symbols, ranges defined in μM
- Experimental: The capability of compounds described herein to inhibit MAO was determined using a modified Promega MAO-Glo™ assay kit. […] The light was measured using a luminescence setting on the plate reader. […] The plate luminescence was read. […] The capability of compounds described herein to inhibit MAO was determined using a modified Promega MAO-Glo™ assay. […] The plate luminescence was read. […]
endpoint: IC50

Example compounds with recorded IC50:
compound=NC/C(=C\F)COc1ccc2nc(NCCO)oc2c1 test_system="rhMAO-A (Homo sapiens (Human), UniProt P21397)" result="10 to 30 µM"
compound="COCCCNc1nc2ccc(OC/C(=C\\F)CN)cc2o1 [Example 81, 4-methylbenzenesulfonate]" test_system="rhMAO-A (Homo sapiens (Human), UniProt P21397)" result="1 to 10 µM"
compound="NC/C(=C/F)COc1ccc2nc(NCCC3COC3)oc2c1 [Example 65, 4-methylbenzenesulfonate]" test_system="rhMAO-A (Homo sapiens (Human), UniProt P21397)" result="0.1 to 1 µM"

# evaluate next
Query: Fill blank: measured IC50 of the compound CC(C)(C)Nc1nc2ccc(OC/C(=C/F)CN)cc2o1 [Example 39, 4-methylbenzenesulfonate] is ____.
Reply: 10 to 30 µM
